Target: cloned human 5HT1A receptors (Homo sapiens, UniProt P08908)
Sequence (P08908 1-422): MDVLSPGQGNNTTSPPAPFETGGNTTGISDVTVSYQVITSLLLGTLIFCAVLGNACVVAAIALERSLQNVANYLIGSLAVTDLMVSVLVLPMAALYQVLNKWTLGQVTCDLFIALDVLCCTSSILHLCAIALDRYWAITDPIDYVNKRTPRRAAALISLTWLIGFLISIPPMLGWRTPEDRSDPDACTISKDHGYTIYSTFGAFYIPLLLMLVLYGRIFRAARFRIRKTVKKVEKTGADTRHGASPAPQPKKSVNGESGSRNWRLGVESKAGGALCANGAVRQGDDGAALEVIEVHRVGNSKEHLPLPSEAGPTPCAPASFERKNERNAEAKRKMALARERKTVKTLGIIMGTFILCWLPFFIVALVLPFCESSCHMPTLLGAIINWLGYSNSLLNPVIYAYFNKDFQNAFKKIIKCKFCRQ
IC50 by entry:
Dear colleague, please return just the value in µM, with no unit written.

Below, 3 molecules whose answers are already recorded.
Entry Cc1ccc2c3c(ccc2n1)OC[C@H](CNCCCc1coc2ccccc12)O3 [Example 18] has what IC50?
0.0104

// IC50 lookup, key: Cc1ccc2c3c(ccc2n1)OC[C@H](CN(C)CCCc1csc2ccccc12)O3 [Example 22]
0.878

Look up IC50: Cc1ccc2c3c(ccc2n1)OCC(CN(C)CCCn1ccc2ccc(F)cc21)O3 (stereo not drawn) [Example 34]
0.193

New cases:
// IC50 lookup, key: Cc1ccc2c3c(ccc2n1)OCC(CNCCCn1ccc2ccc(F)cc21)O3 (stereo not drawn) [Example 33]
0.2

If you can, please state the reported IC50 value of Cc1ccc2c3c(ccc2n1)OCC(CNCCCCc1cn(C)c2ccc(F)cc12)O3 (stereo not drawn) [Example 35] .
0.0666

Reported IC50 for CCN(CCCc1c[nH]c2ccc(F)cc12)C[C@H]1COc2ccc3nc(C)oc3c2O1 [Example 36] : what is it?
0.486

Could you tell me which IC50 is on file for Cc1ccc2c3c(ccc2n1)OC[C@H](CNCCCc1cn(C)c2ccc(C#N)cc12)O3 [Example 37] ?
0.0214

// returns reported IC50 for input Cc1ccc2c3c(ccc2n1)OC[C@H](CN(C)CCCn1ccc2c(F)cccc21)O3 [Example 48]
0.5

Quick one: IC50 for Cc1ccc2c3c(ccc2n1)OCC(CNCCc1csc2ccccc12)O3 (stereo not drawn) [Example 21] ?
0.0259

---

// Ki collected for serotonin transporter (Rattus norvegicus, UniProt P31652)
Give the quantity in nM, number only.

Request the reported Ki associated with Cc1ccc2c3c(ccc2n1)OCC(CN(C)CCCc1cn(C)c2ccc(C#N)cc12)O3 (stereo not shown) [Example 40]
7

Look up Ki for this molecule: COc1cccc2c(CCCNCC3COc4ccc5nc(C)ccc5c4O3)coc12 (stereo not shown) [Example 19]
14.6

Any idea what Ki was measured for Cc1ccc2c3c(ccc2n1)OC[C@H](CN(C)CCCc1csc2ccccc12)O3 [Example 22] ?
4.3

Field request: Ki | item: Cc1ccc2c3c(ccc2n1)OC[C@H](CNCCCCc1csc2ccc(Cl)cc12)O3 [Example 49]
23

Fill in: Ki of Cc1ccc2c3c(ccc2n1)OC[C@H](CNCCc1coc2ccccc12)O3 [Example 17] is ___
46

Continuing:
Fill in: Ki of Cc1ccc2c3c(ccc2n1)OC[C@H](CNCCCc1csc2ccccc12)O3 [Example 20] is ___
2.82

Recorded Ki of Cc1ccc2c3c(ccc2n1)OCC(CN(C)CCCc1c[nH]c2ccc(F)cc12)O3 (stereo not shown) [Example 7] , please.
0.38
